For each record, write down the corresponding IC50.
- tgt: PDHK2 (Homo sapiens (Human))
One number for each entry, in nM.

compound=COc1ccc(-c2nnc(C3([C@@H]4CCN(C(=O)[C@@](C)(O)C(F)(F)F)C[C@@H]4C)CC3)[nH]2)cn1 measured_attribute=IC50 unit_annotation=nM observed_value=6000
compound=C[C@@H]1CN(C(=O)[C@@](C)(O)C(F)(F)F)CC[C@@H]1C1(c2nnc(-c3ccc(F)cc3)[nH]2)CC1 measured_attribute=IC50 unit_annotation=nM observed_value=75
compound=COc1ccc(-c2nnc(C3([C@H]4CCN(C(=O)[C@@](C)(O)C(F)(F)F)C[C@H]4C)CC3)[nH]2)cc1 measured_attribute=IC50 unit_annotation=nM observed_value=88
compound="CC1CN(C(=O)[C@@](C)(O)C(F)(F)F)CCC1C1(c2nnc(-c3ccccc3)o2)CC1 (some centres unmarked)" measured_attribute=IC50 unit_annotation=nM observed_value=270
compound=COc1ccc(-c2nnc(C3([C@H]4CCN(C(=O)[C@@](C)(O)C(F)(F)F)C[C@H]4C)CC3)[nH]2)cn1 measured_attribute=IC50 unit_annotation=nM observed_value=91

Take each entry in turn and give its IC50.
1. C[C@@](O)(C(=O)N1CCC(C2(c3nnc(-c4ccc(F)cc4)o3)CC2)CC1)C(F)(F)F
2. COc1ccc(-c2nnc(C3([C@H]4CCN(C(=O)[C@@](C)(O)C(F)(F)F)C[C@H]4C)CC3)o2)cc1

1: 500; 2: 180

* * *

- tgt: human PDHK2 (12-407) (Homo sapiens (Human), UniProt Q15119)
measured-attribute: Kd (nM)
Give bare numbers, in nM.

Worked cases, answers included:
compound=Cc1nnc(C2(C3CCN(C(=O)[C@@](C)(O)C(F)(F)F)CC3)CC2)o1 observed_value=850
compound=CC(C)(c1nnc(-c2ccccc2)[nH]1)C1CCN(C(=O)[C@@](C)(O)C(F)(F)F)CC1 observed_value=98
compound=CC(C)(C)c1nnc(C2(C3CCN(C(=O)[C@@](C)(O)C(F)(F)F)CC3)CC2)o1 observed_value=650

Batch request: Kd per item, same order as input.
1. CC(C)(c1nnc(C2CCCCC2)[nH]1)C1CCN(C(=O)[C@@](C)(O)C(F)(F)F)CC1
2. Cc1ccc(-c2nnc(C3([C@H]4CCN(C(=O)[C@@](C)(O)C(F)(F)F)C[C@H]4C)CC3)[nH]2)cc1
3. CC1CN(C(=O)[C@@](C)(O)C(F)(F)F)CCC1C1(c2nnc(-c3ccccc3)o2)CC1 (some centres unmarked)
4. COc1ccc(-c2nnc(C3([C@H]4CCN(C(=O)[C@@](C)(O)C(F)(F)F)C[C@H]4C)CC3)o2)cn1
5. CC(C)(c1nnc(C2CCCCC2)o1)C1CCN(C(=O)[C@@](C)(O)C(F)(F)F)CC1
6. C[C@@](O)(C(=O)N1CCC(C2(c3nnc(-c4ccccc4)o3)CC2)CC1)C(F)(F)F
7. COc1ccc(-c2nnc(C3([C@H]4CCN(C(=O)[C@@](C)(O)C(F)(F)F)C[C@H]4C)CC3)[nH]2)cc1

1: 290; 2: 2.6; 3: 8.7; 4: 3.8; 5: 120; 6: 200; 7: 2.5

* * *

Provide the reported IC50 of each item.
- tgt: PDHK2 (Homo sapiens (Human))
One number for each entry, in nM.

structure_string=Cc1ccc(-c2nnc(C3([C@H]4CCN(C(=O)[C@@](C)(O)C(F)(F)F)C[C@H]4C)CC3)o2)cc1 observed_value=100
structure_string=Cc1ccc(-c2nnc(C3([C@@H]4CCN(C(=O)[C@@](C)(O)C(F)(F)F)C[C@@H]4C)CC3)o2)cc1 observed_value=7300
structure_string=CC(C)(C)c1nnc(C2(C3CCN(C(=O)[C@@](C)(O)C(F)(F)F)CC3)CC2)o1 observed_value=2400
structure_string=CC(C)(c1nnc(-c2ccccc2)[nH]1)C1CCN(C(=O)[C@@](C)(O)C(F)(F)F)CC1 observed_value=320
structure_string=CC(C)(c1nnc(C2CCCCC2)[nH]1)C1CCN(C(=O)[C@@](C)(O)C(F)(F)F)CC1 observed_value=1400
structure_string=C[C@@](O)(C(=O)N1CCC(C2(c3nnc(-c4ccccc4)o3)CC2)CC1)C(F)(F)F observed_value=440

API: the following record is the query input.
Requested read-out: IC50. Entry: CC(C)(c1nnc(-c2ccccc2)o1)C1CCN(C(=O)[C@@](C)(O)C(F)(F)F)CC1
720
